# assay.target: E. coli CsgA (Escherichia coli)
# Construct: made in house; host or cells: E. coli NEB 3016 slyD::kan, pET11d
# Sequence (P28307 23-151): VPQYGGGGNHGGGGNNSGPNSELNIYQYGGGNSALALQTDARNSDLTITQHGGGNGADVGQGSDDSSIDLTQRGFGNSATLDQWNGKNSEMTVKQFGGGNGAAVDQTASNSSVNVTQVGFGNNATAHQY
# method: In vitro ThioflavinT assay of CsgA aggregation (CsgA ThT Assay)
# Assay type: biochemical
# conditions: read-out: CsgA ThT Assay (10 μM CsgA) % Control AUC at 1005 minutes, 100 μM (activity range), CsgA 10 μM, black plates; compound 100 μM; 1005 minutes; class symbol
Item-by-item account of remaining activity at 100 µM

// query Sample CCN1CC(C(=O)O)n2c(c(-c3cccc(C(F)(F)F)c3)c(Cc3cccc4ccccc34)cc2=O)S1(=O)=O (single isomer, unassigned) [Compound 015a] — what was its remaining activity at 100 µM?
// result 11 to 31%

// query Sample O=C(O)[C@@H]1CNS(=O)(=O)c2c(-c3cccc(C(F)(F)F)c3)c(Cc3cccc4ccccc34)cc(=O)n21 (single isomer, unassigned) [Compound 009a] — what was its remaining activity at 100 µM?
// result 11 to 31%

// query Sample Cn1c(=O)c2c(ncn2CCCCCN2CC(C(=O)O)n3c(c(-c4cccc(C(F)(F)F)c4)c(Cc4cccc5ccccc45)cc3=O)S2(=O)=O)n(C)c1=O (stereo not shown) — what was its remaining activity at 100 µM?
// result > 60%

// query Sample CN(C)CCN1CC(C(=O)O)n2c(c(-c3cccc(C(F)(F)F)c3)c(Cc3cccc4ccccc34)cc2=O)S1(=O)=O (stereo not shown) — what was its remaining activity at 100 µM?
// result > 60%
